Molecular target: Recombinant human calpain I (Homo sapiens)
Construct: made in house
Sequence (P07384 1-714): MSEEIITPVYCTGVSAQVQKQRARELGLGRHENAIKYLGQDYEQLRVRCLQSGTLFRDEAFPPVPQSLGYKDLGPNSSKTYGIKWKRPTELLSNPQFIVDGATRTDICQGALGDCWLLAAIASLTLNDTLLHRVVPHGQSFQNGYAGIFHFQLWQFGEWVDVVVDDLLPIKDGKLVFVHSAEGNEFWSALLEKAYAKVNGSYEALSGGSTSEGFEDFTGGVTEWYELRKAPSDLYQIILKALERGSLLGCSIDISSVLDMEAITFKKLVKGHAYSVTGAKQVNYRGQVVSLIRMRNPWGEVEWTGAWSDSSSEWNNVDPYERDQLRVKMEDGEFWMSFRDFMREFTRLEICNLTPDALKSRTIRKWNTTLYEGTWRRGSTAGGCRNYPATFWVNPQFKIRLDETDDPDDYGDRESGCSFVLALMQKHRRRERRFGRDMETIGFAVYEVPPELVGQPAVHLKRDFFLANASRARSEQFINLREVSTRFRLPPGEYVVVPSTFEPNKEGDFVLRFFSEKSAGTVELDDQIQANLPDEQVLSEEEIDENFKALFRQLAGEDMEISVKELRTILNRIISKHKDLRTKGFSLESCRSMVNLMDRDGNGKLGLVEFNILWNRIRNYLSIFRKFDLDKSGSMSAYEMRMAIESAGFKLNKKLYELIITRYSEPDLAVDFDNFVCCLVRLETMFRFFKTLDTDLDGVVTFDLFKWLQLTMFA
Sequence (P04632 1-268 partner): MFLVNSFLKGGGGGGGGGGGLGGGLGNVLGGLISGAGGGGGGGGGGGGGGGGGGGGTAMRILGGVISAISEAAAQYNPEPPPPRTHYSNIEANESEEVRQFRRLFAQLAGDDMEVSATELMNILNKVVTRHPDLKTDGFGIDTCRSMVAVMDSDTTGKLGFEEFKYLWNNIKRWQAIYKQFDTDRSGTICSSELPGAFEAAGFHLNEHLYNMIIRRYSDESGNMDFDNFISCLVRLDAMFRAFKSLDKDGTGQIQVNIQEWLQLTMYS
Test: Inhibition of calpain I activity (Succ-Leu-Tyr-MNA hydrolysis)
Type: biochemical
Details: 0.2 mM Succ-Leu-Tyr-MNA, pH 7.5
Structures can show the parent of a compound that is named as a salt.
Overview of reported IC50 across a group of compounds:
Expressed in nM, but write only the number.

# compound, reportedValue
data = [
    ("O=C(N[C@H](C(=O)NC(Cc1ccccc1)C(O)S(=O)(=O)O)C1CCCC1)OCc1ccccc1 (some centres unmarked) [Compound 3, sodium Salt]", 15),
]

# ---- query compound ----
Endpoint output: IC50 of CC(C)[C@H](NC(=O)OCc1ccccc1)C(=O)NC(Cc1ccccc1)C(O)S(=O)(=O)O (some centres unmarked) [Compound 1, sodium Salt] . Value?
10
